Tested on: OVCAR-5 ovarian
TEST NAME: NCI tumour cell line growth inhibition, 48 h
Please go through the items and note down their TGI.

Known results for compounds:
| COMPOUND | ATTRIBUTE MEASURED | RESULT |
| --- | --- | --- |
| CC(Oc1ccc(Cl)cc1Cl)C(=O)NN1C(=O)CC(=O)N(c2ccccc2)C1=S (stereo not given) | TGI | > 100 µM |
| O=C(Nc1ccccc1)Oc1ccc(C(=S)Nc2ccc(Br)cc2)cc1 | TGI | 46.4 µM |
| CCSC1=N/C(=C\c2ccco2)C(=O)N1 | TGI | > 100 µM |
| COc1ccc(C(O)c2cc3c(N)c(C(=O)Nc4cccc(Br)c4C)sc3nc2C)cc1 (stereo not given) | TGI | > 25.6 µM |
| COc1cc([C@@H]2c3cc4c(cc3[C@@H](NCc3cccc(C#N)c3)C3COC(=O)[C@@H]32)OCO4)cc(OC)c1O (stereo not given in full) | TGI | 14.6 µM |
| O=C1CSC(c2ccccc2O)N1c1ccc(-n2c(-c3ccccc3)nc3ccccc3c2=O)cc1 (stereo not given) | TGI | > 100 µM |
| CCOc1nc2c(N3CCCC3)nc(N3CCNCC3)nc2nc1NCc1ccccc1 | TGI | 16.3 µM |
| CC(O)[C@H](NC(=O)N[C@@H](CC(N)=O)c1nc(N2CCNCC2)no1)C(=O)O (stereo not given in full) | TGI | > 100 µM |
| Cc1[nH]c(-c2ccccc2)c2nc(N(C)C)oc(=O)c12 | TGI | > 100 µM |

Now for a further compound.
Item COC(=O)c1ccc2c(c1)CC1(C2)Cc2ccccc2C1=O (stereo not given) has what recorded TGI?
> 100 µM

* * *

System: NCI-H522 lung
TEST NAME: NCI tumour cell line growth inhibition, 48 h
Hi there, I'd appreciate the recorded TGI for every entry that follows.

Example entries begin here.
| MOLECULE | TGI |
| --- | --- |
| Cc1cn(C2CC(N=[N+]=[N-])C(COP(=O)(O)OCC3OC(n4cc(F)c(=O)[nH]c4=O)CC3O)O2)c(=O)[nH]c1=O (stereo not drawn) | > 100 µM |
| COC(=O)/C=C/[C@@H]1[C@H](C)N1S(=O)(=O)c1ccc(C)cc1 (stereo partly drawn) | > 100 µM |

GET /values?readout=TGI&item= Nc1nc(SCC(=O)c2ccc(Br)cc2)c2[nH]cnc2n1
86.5 µM

* * *

System: LXFL 529 NSCLC
TEST NAME: NCI tumour cell line growth inhibition, 48 h
Kindly supply the reported TGI values for the records listed here.

Here are 5 compounds together with their reported answers.
| COMPOUND | TGI |
| --- | --- |
| C1=CC2CCC1CN2CCC1CNc2ccccc21 (stereo unspecified) | > 100 µM |
| C[C@H]1CC[P+](C)(c2ccccc2)C1 (stereo partly specified) | > 100 µM |
| CCCNCCCCC(NC(C)=O)C(=O)NCc1ccccc1 (stereo unspecified) | > 100 µM |
| CCCCCCCCCCCCCCCc1nc(=S)[nH][nH]1 | > 100 µM |
| CCCCCCCCC(O)c1ccc(/C=C\C(O)CCCC(=O)O)s1 (stereo unspecified) | > 100 µM |

Hi! Can you tell me TGI for each of these compounds?
1. Cc1cc(Cl)ccc1NC(=O)C1C(=O)N(c2ccc(Cl)cc2C)C(=O)/C1=N\NC(N)=S (stereo unspecified)
2. COc1ccc(CCn2cncn2)cc1
3. COc1ccccc1C(=O)N(Cc1ccccc1)c1ccc(Cl)c(C(=O)OC(C)C)c1
4. CCCCC1(C(NC(=O)c2ccccc2Cl)c2ccncc2)C(=O)N(c2ccccc2)N(c2ccccc2)C1=O (stereo unspecified)

1. 98.5 µM
2. > 100 µM
3. > 100 µM
4. > 100 µM
